Tested on: EKVX
Measurement notes: NCI tumour cell line growth inhibition, 48 h
Active and inactive are the calls of the source. Cut-off read from the data, not from the text of the source: active = GI50 up to about 1.1 µM and inactive = higher.
Assign GI50 to each entry below.

Determine reported GI50 for CC(C)(C)OC(=O)NC1CCC(C(C)(C)C)CC1 (stereo not given) ; test system: EKVX.
> 64.1 µM (inactive)

Determine reported GI50 for CC(C)CCc1n[nH]c(=O)n1/N=C\c1ccccc1 ; test system: EKVX.
> 100 µM (inactive)

Determine reported GI50 for Nc1nc(N)c(CCCCc2ccccc2)c(/C=C/c2ccc([N+](=O)[O-])cc2)n1 ; test system: EKVX.
4.44 µM (inactive)

Determine reported GI50 for CO/N=C(\C)c1ccc(Nc2c3ccccc3nc3occc23)cc1 ; test system: EKVX.
3.74 µM (inactive)

Determine reported GI50 for Cc1cc2c(c(/C=N/Cc3ccccc3)c1)OC1(C=C2)Oc2ccccc2C(=O)N1C (stereo not given) ; test system: EKVX.
15.3 µM (inactive)

Determine reported GI50 for Cc1ccc(C)c(NC(=O)C(=O)C(C2C(C)CC(=O)C2CC(=O)O)[N+](=O)[O-])c1 (stereo not given) ; test system: EKVX.
> 100 µM (inactive)

Determine reported GI50 for COc1cccc(C23CCCC(C2)N(C)CC3OC(=O)c2ccccc2)c1OC (stereo not given) ; test system: EKVX.
24.5 µM (inactive)

Determine reported GI50 for O=c1[nH]c(=O)n([C@@H]2O[C@H](CO)[C@@H](O)[C@@H]2F)cc1I [FIALURIDINE] ; test system: EKVX.
> 100 µM (inactive)

Determine reported GI50 for COc1cc(-c2[o+]c3cc(O)cc(O)c3cc2O)cc(O)c1O ; test system: EKVX.
92.9 µM (inactive)

Determine reported GI50 for CC1=C2CC[C@@]3(C)C(=CCC3O)C2(C)CCC1=O (stereo not given in full) ; test system: EKVX.
27.1 µM (inactive)
